FYI, the data here is from PubChem BioAssay AID328.

system: BDF1 mice, P388 leukemia ip, median survival T/C; experiment: NCI In Vivo Anticancer Drug Screen. Data for tumor model P388 Leukemia (intraperitoneal) in B6D2F1 (BDF1) mice; settings: endpoint: median survival time; dose: 25.0 mg/kg/injection; schedule: Q04DX003 (ip); vehicle: saline sonified
Toxic doses and inconclusive results are not listed. The calls were made as follows: active = survival T/C of 150% or more; inactive = T/C below 125% in these data.
Respond only with the outcome that fits, drawn from active, inactive

Here's what some known entries look like.
compound: CCCCCCCCCCCCCCCCCCSc1ccccc1
class.assignment: inactive

compound: CC(=O)O/N=C(/C)c1ccccc1
class.assignment: inactive

compound: CSC(=S)NNC(=O)c1cccc([N+](=O)[O-])c1
class.assignment: inactive

compound: COc1cc(N(CCCl)CCCl)c(OC)cc1/C=N\Nc1nncn1N
class.assignment: active

compound: Nc1nc(N)c2cc(CNc3ccc(C(=O)NC(CC(=O)O)C(=O)O)cc3)ccc2n1 (stereo unspecified)
class.assignment: inactive

Now look at this entry.
Prompt line: For "Oc1ccccc1C=NCCN1CC1.Oc1ccccc1C=NCCN1CC1.[Ni+2]" , what call appears in the results of this test?
Response line: inactive

---

Give measured T/C for each item. Keep answers brief.
test system: BDF1 mice, P388 leukemia ip, median survival T/C; test: NCI In Vivo Anticancer Drug Screen. Data for tumor model P388 Leukemia (intraperitoneal) in B6D2F1 (BDF1) mice; conditions: endpoint: median survival time; dose: 50.0 mg/kg/injection; schedule: Q01DX009 (ip); vehicle: water; higher = longer survival
Inconclusive results and toxic doses are left out.

Here is how some compounds turned out for T/C.
compound: O=C1C(c2ccccc2)=C(c2ccccc2)C(c2ccccc2)=C1c1ccccc1
endpoint.value: 97 % of control
//
compound: CC1=C(C)CC2C(=O)C=CC(=O)C2C1 (stereo not drawn)
endpoint.value: 93 % of control

For each of the compounds below, state T/C.
1. O=C(NCCNCc1ccccc1)c1ccccc1
2. O=CN1CCCC1C(=O)O (stereo not drawn)
3. O=C(N=c1cc(-c2ccc(Cl)cc2)ss1)C(Cc1ccccc1)N1C(=O)c2ccccc2C1=O (stereo not drawn)
4. O=C1NC(c2cccs2)(c2cccs2)C(=O)N1Cl
5. COc1ccc(C(=O)/C=C/c2ccc(OCc3ccccc3)c(OC)c2)cc1OC
6. CS(=O)(=O)OCc1c(O)c2c(c(O)c1COS(C)(=O)=O)C(=O)C=CC2=O

Response line:
103 % of control
94 % of control
104 % of control
116 % of control
111 % of control
116 % of control

---

test system: BDF1 mice, P388 leukemia ip, median survival T/C; assay: NCI In Vivo Anticancer Drug Screen. Data for tumor model P388 Leukemia (intraperitoneal) in B6D2F1 (BDF1) mice; details: endpoint: median survival time; dose: 75.0 mg/kg/injection; schedule: Q04DX003 (ip); vehicle: saline; higher = longer survival
Inconclusive results and toxic doses are left out.
Give measured T/C for each item. Keep answers brief.

Here is how some molecules turned out for T/C.
molecule: CNC/C(C)=C/Br
T/C: 95 % of control
--
molecule: CC1(C)N=C(N)N=C(N)N1c1ccc(OCCCOc2ccc(S(=O)(=O)F)cc2)c(Cl)c1
T/C: 114 % of control
--
molecule: N#CC(c1ccccc1)C1CCCCC1 (centres undefined)
T/C: 111 % of control

Prompt line: Query (molecule): "Cc1ccc(S(=O)(=O)N(C)c2ccc(C(=O)O)cc2F)cc1" ; field requested: T/C
Response line: 100 % of control

---

tested on: BDF1 mice, P388 leukemia ip, median survival T/C; experiment: NCI In Vivo Anticancer Drug Screen. Data for tumor model P388 Leukemia (intraperitoneal) in B6D2F1 (BDF1) mice; conditions: endpoint: median survival time; dose: 100.0 mg/kg/injection; schedule: Q01DX009 (ip); vehicle: saline with Tween-80
Inconclusive results and toxic doses are left out. The calls were made as follows: active = survival T/C of 150% or more; inactive = T/C below 125% in these data.
Respond only with the outcome that fits, drawn from 1 (yes) (active), 0 (no) (inactive)

Here's what some known entries look like.
compound: O=[N+]([O-])c1ccc(NS(=O)(=O)c2cc(Cl)ccc2Cl)c(C(F)(F)F)c1
class.assignment: 0 (no)
//
compound: CCOC(=O)COc1ccc(/C=C(\C)[N+](=O)[O-])c2ccccc12
class.assignment: 0 (no)
//
compound: CNc1cccnc1/C=N/NC(N)=S
class.assignment: 1 (yes)

Prompt line: For "Cc1c(Cl)c(Cl)c(Cl)c(Cl)c1Cl" , what call appears in the results of this test?
Response line: 0 (no)

Prompt line: Next up: "Cc1cccc(C(=O)O)[n+]1[O-]"
Response line: 0 (no)

Prompt line: Next up: "COc1ccc(C(C)=O)cc1CO/N=C1\CSCc2ccccc21"
Response line: 0 (no)

Prompt line: Next up: CCCC(C#N)(CCCl)c1ccccc1 (centres undefined)
Response line: 0 (no)

Prompt line: Next up: O=C1CCCCCCCCCCC1Cc1cc(O)c(CC2CCCCCCCCCCC2=O)cc1O (centres undefined)
Response line: 0 (no)

Prompt line: Next up: O=C1NNC2CCCCC2O1 (centres undefined)
Response line: 0 (no)

Prompt line: Next up: "O=c1c2ccccc2nc(-c2ccccc2Cl)n1/N=C/c1cccc([N+](=O)[O-])c1"
Response line: 0 (no)

Prompt line: Next up: "O=C(NC12CC3CC(CC(C3)C1)C2)Oc1ccccc1"
Response line: 0 (no)

---

test system: BDF1 mice, P388 leukemia ip, median survival T/C; experiment: NCI In Vivo Anticancer Drug Screen. Data for tumor model P388 Leukemia (intraperitoneal) in B6D2F1 (BDF1) mice; settings: endpoint: median survival time; dose: 6.25 mg/kg/injection; schedule: Q01DX009 (ip); vehicle: saline
Inconclusive results and toxic doses are left out. How the source made its calls: active means survival T/C of 150% or more; inactive means T/C below 125% in these data.
Respond only with the outcome that fits, drawn from 1 for active, -1 for inactive

Prompt line: For "CC(=O)c1ccc[n+](Cc2c(Cl)cccc2Cl)c1" , what call appears in the results of this test?
Response line: -1

Prompt line: Next up: "Cc1c2c(ccc3ccccc32)c[n+]2ccccc12"
Response line: -1

Prompt line: Next up: "O=C1C=CC(=O)N1CN1CCOCC1"
Response line: -1

---

tested on: BDF1 mice, P388 leukemia ip, median survival T/C; assay: NCI In Vivo Anticancer Drug Screen. Data for tumor model P388 Leukemia (intraperitoneal) in B6D2F1 (BDF1) mice; conditions: endpoint: median survival time; dose: 10.0 mg/kg/injection; schedule: Q01DX009 (ip); vehicle: Klucel (hydroxypropylcellulose) (HPC); higher = longer survival
Toxic doses and inconclusive results are not listed.
measured.attribute: T/C

smiles.text: CCCCCCCCCCCCCCCCCC(=O)[O][Hg][c]1ccccc1
endpoint.value: 104 % of control
--
smiles.text: Cc1cc2[nH]c(=O)c(=O)[nH]c2cc1C
endpoint.value: 109 % of control
--
smiles.text: COc1cc2c(c3c1c(=O)c1cc(OC(C)=O)ccc1n3C)C=CC(C)(C)O2
endpoint.value: 100 % of control
--
smiles.text: Cc1ccc2c(Br)cc(Br)c(O)c2n1
endpoint.value: 115 % of control

Would you kindly look at the next entry?
Prompt line: Query (compound): "O=[N+]([O-])c1cc([N+](=O)[O-])c(Br)cc1Cl" ; field requested: T/C
Response line: 110 % of control

---

Give measured T/C for each item. Keep answers brief.
system: BDF1 mice, P388 leukemia ip, median survival T/C; test: NCI In Vivo Anticancer Drug Screen. Data for tumor model P388 Leukemia (intraperitoneal) in B6D2F1 (BDF1) mice; settings: endpoint: median survival time; dose: 50.0 mg/kg/injection; schedule: Q01DX001 (ip); vehicle: saline sonified; higher = longer survival
Toxic doses and inconclusive results are not listed.

For each of the compounds below, state T/C.
1. CCCCN(CCO)C(C#CC(C)(C)O)C(C)C (stereo not given)
2. O=N/N=c1/sc2ccccc2n1-c1ccccc1
3. CCOC(=O)CCC(NC(=O)c1cc(Cl)c(N(C)S(=O)(=O)c2ccc(C)cc2)cc1Cl)C(=O)OCC (stereo not given)
4. OCCNCCN=Cc1ccccc1O
5. O=C1c2cc([N+](=O)[O-])ccc2-c2cc(Cl)c(Cl)cc21

Response line:
110 % of control
104 % of control
104 % of control
87 % of control
86 % of control

---

Give measured T/C for each item. Keep answers brief.
system: BDF1 mice, P388 leukemia ip, median survival T/C; test: NCI In Vivo Anticancer Drug Screen. Data for tumor model P388 Leukemia (intraperitoneal) in B6D2F1 (BDF1) mice; details: endpoint: median survival time; dose: 50.0 mg/kg/injection; schedule: Q01DX009 (ip); vehicle: water; higher = longer survival
Toxic doses and inconclusive results are not listed.

Here is how some molecules turned out for T/C.
molecule: CCCCN(CCCC)C(=O)C1C=C2c3cccc4[nH]cc(c34)CC2N(C)C1 (stereo not drawn)
system.name: BDF1 mice, P388 leukemia ip, median survival T/C
endpoint.value: 105 % of control
--
molecule: O=C1CCC2(CCCC2)c2ccccc21
system.name: BDF1 mice, P388 leukemia ip, median survival T/C
endpoint.value: 97 % of control
--
molecule: Cl
system.name: BDF1 mice, P388 leukemia ip, median survival T/C
endpoint.value: 104 % of control
--
molecule: N/C(=N\O)c1cccnc1
system.name: BDF1 mice, P388 leukemia ip, median survival T/C
endpoint.value: 102 % of control
--
molecule: c1cc2n(n1)CCN2
system.name: BDF1 mice, P388 leukemia ip, median survival T/C
endpoint.value: 105 % of control
--
molecule: COc1ccc(/C=C/C(=O)c2ccccc2)cc1OC
system.name: BDF1 mice, P388 leukemia ip, median survival T/C
endpoint.value: 92 % of control

For each of the molecules below, state T/C.
1. O=C1c2ccccc2C(=O)c2c(NCCNCCNCCO)ccc(NCCNCCNCCO)c21
2. O=C(NCCCl)NC1C(O)OC(CO)C(O)C1O (stereo not drawn)

Response line:
1. 113 % of control
2. 120 % of control
